experiment_description: Thermodynamic solubility of the polymorphic forms in organic solvents (HPLC quantification)
Format: physicochemical
test_settings: propylene glycol, 27 °C, organic solvent or mixture, thermodynamic from solid; equilibrated at 27° C. for 24 hours with shaking
Procedure: The thermodynamic solubility of FORM 1, FORM 2, FORM 4, and FORM 6 of 1,6-Bis [3-(3-carboxymethylphenyl)-4-(2-α-D-mannopyranosyloxy)-phenyl] hexane (compound of formula (I)) was determined in several organic solvents by suspending sufficient compound to give a maximum final concentration. Quantification was by reverse phase HPLC with gradient solution with reference to a standard solution of FORM B of the compound of formula (I) at 0.25 mg/ml. […]
property_measured: solubility at 24 h (mg/mL)
Number only, in mg/mL; omit the unit.

Recorded solubility at 24 h (compound O=C(O)Cc1cccc(-c2cc(CCCCCCc3ccc(O[C@H]4O[C@H](CO)[C@@H](O)[C@H](O)[C@@H]4O)c(-c4cccc(CC(=O)O)c4)c3)ccc2O[C@H]2O[C@H](CO)[C@@H](O)[C@H](O)[C@@H]2O)c1 [FORM 1] ): 199
